Values compiled from patent US8222260B2.

tested on: breast carcinoma cell line MCF-7; assay: Calcein AM cytotoxicity assay; assay type: cell-based, human; conditions: 72 hours, read-out: GI50 MCF7
# reported GI50; entries follow

Here is how some compounds turned out for GI50.
{"COMPOUND": "CSc1nc(Nc2cccc(O)c2)c2nc[nH]c2n1 [Compound 101]", "GI50": "> 167 µM"}
{"COMPOUND": "COc1ccccc1Nc1nc(S)nc2nc[nH]c12 [Compound 87]", "GI50": "> 167 µM"}

From here, focus on the item given below.
Which GI50 reading was recorded for the compound Cc1nc(Nc2cccc(O)c2)c2nc[nH]c2n1 [Compound 116] ?
> 167 µM
